System: HL-7702
EXPERIMENTAL_DETAILS: MTT cytotoxicity assay, normal hepatic cell line HL-7702
Assay type: cell-based
TEST_CONDITIONS: human normal hepatic immortal cell line, drug exposure 48 h, mean ± SD (n = 3), read-out: Cytotoxic activity (IC50) HL-7702
PROPERTY_MEASURED: pIC50
// pIC50 here means minus log10 of the molar concentration (mol/L)

Request: Determine reported pIC50 for COc1ccc(NC2c3cc4c(cc3C(c3cc(OC)c(OC)c(OC)c3)C3C(=O)OCC23)OCO4)cc1F (stereo not shown) ; test system: HL-7702.
Result: 4.26

----------
System: BGC-823
EXPERIMENTAL_DETAILS: MTT cytotoxicity assay, BGC-823
Format: cell-based
TEST_CONDITIONS: drug exposure 48 h, mean ± SD (n = 3), read-out: Cytotoxic activity (IC50) BGC-823
PROPERTY_MEASURED: IC50 (nM)
The answer is to be given in nM; state only the numeric part.

Request: Supply IC50 value. Item: COc1ccc(NC2c3cc4c(cc3C(c3cc(OC)c(OC)c(OC)c3)C3C(=O)OCC23)OCO4)cc1F (stereo not shown) [Compound 19]
Result: 1610

----------
EXPERIMENTAL_DETAILS: MTT cytotoxicity assay, normal hepatic cell line HL-7702
Assay type: cell-based
TEST_CONDITIONS: HL-7702 normal hepatic cells, human normal hepatic immortal cell line, drug exposure 48 h, mean ± SD (n = 3), read-out: Cytotoxic activity (IC50) HL-7702
# strict inequality: IC50 at 48 h < 30 µM yields 1, everything else yields 0

Solved cases below.
COMPOUND	ASSIGNED_CLASS
COc1cc([C@@H]2c3cc4c(cc3[C@@H](Nc3cccc(Cl)c3)[C@H]3COC(=O)[C@H]23)OCO4)cc(OC)c1O [Compound 6′]	0
COc1cc([C@@H]2c3cc4c(cc3[C@@H](Nc3cccc(F)c3)[C@H]3COC(=O)[C@H]23)OCO4)cc(OC)c1O [Compound 7′]	1
COc1ccc(N[C@@H]2c3cc4c(cc3[C@@H](c3cc(OC)c(O)c(OC)c3)[C@H]3C(=O)OC[C@@H]32)OCO4)cc1Cl [Compound 18′]	0
COc1cc([C@@H]2c3cc4c(cc3[C@@H](Nc3ccccc3Cl)[C@H]3COC(=O)[C@H]23)OCO4)cc(OC)c1OC [Compound 3]	1

Request: IC50 at 48 h strictly < 30 µM for this compound? COc1cccc(N[C@@H]2c3cc4c(cc3[C@@H](c3cc(OC)c(O)c(OC)c3)[C@H]3C(=O)OC[C@@H]32)OCO4)c1 [Compound 13′]
Result: 0

Request: IC50 at 48 h strictly < 30 µM for this compound? COc1ccc(N[C@@H]2c3cc4c(cc3[C@@H](c3cc(OC)c(O)c(OC)c3)[C@H]3C(=O)OC[C@@H]32)OCO4)cc1 [Compound 12′]
Result: 1

Request: IC50 at 48 h strictly < 30 µM for this compound? COc1ccc(Cl)cc1N[C@@H]1c2cc3c(cc2[C@@H](c2cc(OC)c(OC)c(OC)c2)[C@H]2C(=O)OC[C@@H]21)OCO3 [Compound 15]
Result: 1

Request: IC50 at 48 h strictly < 30 µM for this compound? COc1cc([C@@H]2c3cc4c(cc3[C@@H](Nc3cccc(Cl)c3)[C@H]3COC(=O)[C@H]23)OCO4)cc(OC)c1OC [Compound 6]
Result: 0
